# Relative albumin-binding affinity, mouse blood plasma listing for each entry below
System: mouse serum albumin (MSA)
experimentSummary: Albumin-binding properties in mouse blood plasma (ultrafiltration assay)
statedConditions: ultrafiltration (Amicon, 10 kDa), mouse blood plasma dilutions in PBS pH 7.4, [MSA]-to-[radiopeptide] 0.01–12500, 0.006 nmol, 37 °C 30 min, γ-counter; inverse ratio of B50, [177Lu]Lu-uPAR-01 set as 1.00; average curve of 3 experiments
measurementLabel: Relative albumin-binding affinity, mouse blood plasma

compound	measuredValue
CC(C)C[C@H](NC(=O)[C@H](Cc1ccc(O)cc1)NC(=O)[C@@H](CCCNC(=N)N)NC(=O)[C@@H](CO)NC(=O)[C@H](Cc1ccccc1)NC(=O)[C@H](CC1CCCCC1)NC(=O)[C@H](CC(=O)O)NC(=O)[C@H](CCCCNC(=O)CCCc1ccc(I)cc1)NC(=O)CN1CCN(CC(=O)O)CCN(CC(=O)O)CCN(CC(=O)O)CC1)C(=O)N[C@@H](Cc1c[nH]c2ccccc12)C(=O)N[C@@H](CO)C(N)=O [[^177Lu]Lu-uPAR-01, metal not drawn]	1.00
CC(C)C[C@H](NC(=O)[C@H](Cc1ccc(O)cc1)NC(=O)[C@@H](CCCNC(=N)N)NC(=O)[C@@H](CO)NC(=O)[C@H](Cc1ccccc1)NC(=O)[C@H](CC1CCCCC1)NC(=O)[C@H](CC(=O)O)NC(=O)CN1CCN(CC(=O)O)CCN(CC(=O)O)CCN(CC(=O)O)CC1)C(=O)N[C@@H](Cc1c[nH]c2ccccc12)C(=O)N[C@@H](CO)C(N)=O [[^177Lu]Lu-DOTA-AE105, metal not drawn, reference compound]	0.02
CC(C)C[C@H](NC(=O)[C@H](Cc1ccc(O)cc1)NC(=O)[C@@H](CCCNC(=N)N)NC(=O)[C@@H](CO)NC(=O)[C@H](Cc1ccccc1)NC(=O)[C@H](CC1CCCCC1)NC(=O)[C@H](CC(=O)O)NC(=O)CCOCCOCCOCCOCCNC(=O)[C@H](CCCCNC(=O)CCCc1ccc(I)cc1)NC(=O)CN1CCN(CC(=O)O)CCN(CC(=O)O)CCN(CC(=O)O)CC1)C(=O)N[C@@H](Cc1c[nH]c2ccccc12)C(=O)N[C@@H](CO)C(N)=O [[^177Lu]Lu-uPAR-05, metal not drawn]	0.61

* * *

Tested on: mouse serum albumin (MSA)
experimentSummary: Albumin-binding properties in mouse blood plasma (ultrafiltration assay)
statedConditions: ultrafiltration (Amicon, 10 kDa), mouse blood plasma dilutions in PBS pH 7.4, [MSA]-to-[radiopeptide] 0.01–12500, 0.006 nmol, 37 °C 30 min, γ-counter; inverse ratio of B50, [177Lu]Lu-uPAR-01 set as 1.00; average curve of 3 experiments
measurementLabel: Relative albumin-binding affinity, mouse blood plasma

compound	measuredValue
CC(C)C[C@H](NC(=O)[C@H](Cc1ccc(O)cc1)NC(=O)[C@@H](CCCNC(=N)N)NC(=O)[C@@H](CO)NC(=O)[C@H](Cc1ccccc1)NC(=O)[C@H](CC1CCCCC1)NC(=O)[C@H](CC(=O)O)NC(=O)[C@H](CCCCNC(=O)CCCc1ccc(I)cc1)NC(=O)[C@@H](N)CCCCNC(=O)CN1CCN(CC(=O)O)CCN(CC(=O)O)CCN(CC(=O)O)CC1)C(=O)N[C@@H](Cc1c[nH]c2ccccc12)C(=O)N[C@@H](CO)C(N)=O [[^177Lu]Lu-uPAR-04, metal not drawn]	1.08

Reference for the values: paper PMC12135066
